Reported Population Healthy Nuclei (%) values for a set of compounds
Test system: U2OS
ASSAY_SUMMARY: Multiplex assay against U2OS
Format: toxicity, cell-based
APPLIED_CONDITIONS: human, 12 h, 10 µM, compound concentration 10 uM, replicate 1
All answers are understood in %, so give the number only.

CC(C)(C)c1ccc(S(=O)(=O)Nc2ccc(Cl)cc2C(=O)c2cc[n+]([O-])cc2)cc1 68
CN1CCN(c2nc3cc(C(F)(F)F)ccc3n3cccc23)CC1.O=C(O)/C=C\C(=O)O.O=C(O)/C=C\C(=O)O 53
CCNC1(C(N)=O)CCN(c2ncnc3c2nc(-c2ccccc2Cl)n3-c2ccc(Cl)cc2)CC1 48

Q: State the recorded Population Healthy Nuclei (%) for this entry: O=C(O)Cc1ccccc1Nc1c(Cl)cccc1Cl
Ans: 68

Q: Look up Population Healthy Nuclei (%) for this compound: CCOc1c2c(c(OCC)c3ncccc13)CN(c1ccc(CS(=O)(=O)NC(=O)Cc3ccccc3OC)cc1C)C2=O
Ans: 63

Entry source: ChEMBL document CHEMBL5058577
